Where do these numbers come from? They come from patent US9296734B2.

- assay.target: UniProtKB P56817
- experiment.summary: In vitro enzymatic BACE FRET assay
- Format: biochemical
- run.parameters: average IC50; read-out: BACE 1 FRET assay IC50
measure: IC50 (nM)

Example entries begin here.
INSERT INTO measurements (entry_smiles, measure, result) VALUES
  ('C[C@@]1(c2cc(NC(=O)c3ncc(C#N)cc3Cl)cnc2F)C[C@@H](C(F)(F)F)OC(N)=N1', 'IC50', 60.5),
  ('COc1ncc(NC(=O)c2ccc(Cl)cn2)cc1[C@]1(C)C[C@@H](C(F)(F)F)OC(N)=N1', 'IC50', 249);

[1] C[C@@]1(c2nc(NC(=O)c3ccc(Cl)cn3)ccc2F)C[C@@H](C(F)(F)F)OC(N)=N1
[2] NC1=N[C@](CF)(c2cc(Oc3ncccn3)ccc2F)C[C@@H](C(F)(F)F)O1
[3] COc1cc(Cl)cnc1C(=O)Nc1ccc(F)c([C@]2(CF)C[C@@H](C(F)(F)F)OC(N)=N2)c1
[4] N#Cc1cnc2c(Nc3ccc(F)c([C@]4(CF)C[C@@H](C(F)(F)F)OC(N)=N4)c3)nccc2c1
[5] NC1=N[C@](CF)(c2cc(Oc3cc(Br)cc(Cl)n3)ccc2F)C[C@@H](C(F)(F)F)O1
Prompt: List items by IC50 in falling order. Please list each label once, in the requested order.
Completion: 2, 5, 1, 3, 4
(2: 9970 nM, 5: 1950 nM, 1: 103 nM, 3: 56.4 nM, 4: 21 nM)

* * *

- assay.target: Beta Secretase enzyme (BACE) (Homo sapiens (Human))
- Sequence (P56817 46-501): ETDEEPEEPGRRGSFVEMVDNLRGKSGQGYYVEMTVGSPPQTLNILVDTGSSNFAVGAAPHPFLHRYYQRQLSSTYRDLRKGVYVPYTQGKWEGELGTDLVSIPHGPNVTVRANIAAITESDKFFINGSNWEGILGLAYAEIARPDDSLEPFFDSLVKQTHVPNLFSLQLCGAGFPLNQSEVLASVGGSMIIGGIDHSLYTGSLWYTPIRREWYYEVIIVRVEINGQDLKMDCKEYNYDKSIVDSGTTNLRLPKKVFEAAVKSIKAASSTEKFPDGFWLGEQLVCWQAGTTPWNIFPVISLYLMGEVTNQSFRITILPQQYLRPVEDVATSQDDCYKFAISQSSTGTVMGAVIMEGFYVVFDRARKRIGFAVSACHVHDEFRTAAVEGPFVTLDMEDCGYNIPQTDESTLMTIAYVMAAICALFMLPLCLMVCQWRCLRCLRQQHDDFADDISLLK
- experiment.summary: In vitro enzymatic BACE FRET assay
- Format: biochemical
- run.parameters: average IC50, BACE enzyme assay; read-out: BACE 1 FRET assay IC50
pIC50: −log10 of the molar value.
measure: pIC50

INSERT INTO assay_data (entry_smiles, result) VALUES
  ('C[Si](C)(C)C#Cc1ccc(-c2ccc(F)c([C@]3(CF)C[C@@H](C(F)(F)F)OC(N)=N3)c2)cn1', 4.43);

[A] COc1ccc(C(=O)Nc2cc(F)c(F)c([C@]3(CF)C[C@@H](C(F)(F)F)OC(N)=N3)c2)nc1
[B] Cc1cc(Cl)cnc1C(=O)Nc1cc(F)c(F)c([C@]2(C)C[C@@H](C(F)(F)F)OC(N)=N2)c1
[C] NC1=N[C@](CF)(c2cc(Nc3nccc4nc(C(F)(F)F)cnc34)ccc2F)C[C@@H](C(F)(F)F)O1
[D] NC1=N[C@](CF)(c2cc(NC(=O)c3ccc(C#CC4CC4)cn3)ccc2F)C[C@@H](C(F)(F)F)O1
Prompt: rank_up(items): orders items by reported pIC50 in ascending numerical order. Put the labels in the requested order and list them out.
Completion: C, A, D, B
(C: 6.93, A: 7.21, D: 7.64, B: 8.02)

* * *

- Tested on: Aβ40 in conditioned medium of cells stably expressing Amyloid Precursor Protein (APP)
- experiment.summary: In vitro BACE cell-based assay (Aβ40 sandwich ELISA)
- run.parameters: Homo sapiens, HEK293, read-out: HEK cell assay IC50
Recorded IC50 by entry
The reply should be a number in nM, with the unit left off.

Take a look at these entries with their results.
INSERT INTO assay_data (entry_smiles, assay_target, result) VALUES
  ('Cn1cc(NC(=O)c2ccc(Cl)cn2)cc([C@]2(C)C[C@@H](C(F)(F)F)OC(N)=N2)c1=O', 'Aβ40 in conditioned medium of cells stably expressing Amyloid Precursor Protein (APP)', 12.7),
  ('N#Cc1cccnc1Oc1ccc(F)c([C@]2(CF)C[C@@H](C(F)(F)F)OC(N)=N2)c1', 'Aβ40 in conditioned medium of cells stably expressing Amyloid Precursor Protein (APP)', 3610),
  ('NC1=N[C@](CF)(c2cc(Oc3nccc(C(F)(F)F)c3F)ccc2F)C[C@@H](C(F)(F)F)O1', 'Aβ40 in conditioned medium of cells stably expressing Amyloid Precursor Protein (APP)', 8180);

Please find the next compound below.
Prompt: # IC50 lookup, item C[C@@]1(c2cc(NC(=O)c3cnc(OCc4ncco4)cn3)cc(F)c2F)C[C@@H](C(F)(F)F)OC(N)=N1
Completion: 3

* * *

- assay.target: Beta Secretase enzyme (BACE) (Homo sapiens (Human))
- experiment.summary: In vitro enzymatic BACE FRET assay
- Assay type: biochemical
- run.parameters: average; read-out: BACE 1 FRET assay IC50
pIC50: −log10 of the molar value.
measure: pIC50

As a guide, the following entries are already answered.
INSERT INTO measurements (entry_smiles, measure, result) VALUES
  ('COc1cc(Cl)cnc1C(=O)Nc1cc(C)c(F)c([C@]2(CF)C[C@@H](C(F)(F)F)OC(N)=N2)c1', 'pIC50', 7.04),
  ('COc1cnc(C(=O)Nc2cc(F)c(F)c([C@]3(C)C[C@@H](C(F)(F)F)OC(N)=N3)c2)c(F)c1', 'pIC50', 7.48),
  ('C[C@@]1(c2cc(NC(=O)c3ncc(Br)cc3Cl)cc(F)c2F)C[C@@H](C(F)(F)F)OC(N)=N1', 'pIC50', 7.70);

[1] C[C@@]1(c2cc(NC(=O)c3ccc(Br)cn3)cc(F)c2F)C[C@@H](C(F)(F)F)OC(N)=N1
[2] COc1cnc(C(=O)Nc2cc(F)c(F)c([C@]3(C)C[C@@H](C(F)(F)F)OC(N)=N3)c2)c(C)n1
[3] C[C@@]1(c2cc(NC(=O)c3ncc(C#N)cc3F)cc(F)c2F)C[C@@H](C(F)(F)F)OC(N)=N1
Prompt: Sequence the entries by pIC50, beginning with the highest number. Please reply with the labels ordered as requested. Many thanks.
Completion: 1, 3, 2
(1: 7.66, 3: 7.41, 2: 6.93)

* * *

- assay.target: Cathepsin D (Cat D) (Homo sapiens (Human))
- experiment.summary: In vitro enzymatic Cathepsin D (Cat D) FRET assay
- Format: biochemical
- run.parameters: average IC50, cathepsin D enzyme assay; read-out: CatD IC50
- Method: In Vitro Enzymatic Cathepsin D (Cat D) FRET (Fluorescence Resonance Energy Transfer) Assay Recombinant Cat D was expressed in CHO cells. The assay buffer for CathepsinD is 0.05 M citrate pH 3.5, 10% DMSO final, 5 mM CHAPS. […] The FRET assay is terminated with by addition of Tris buffer, which raises the pH to neutrality, and the fluorescence is determined. […] Proteolytic cleavage of the FRET substrate releases quenching of fluorescence (Cat D excitation 500 nm and emission 580 nm). […]
measure: IC50 (µM)

INSERT INTO assay_data (molecule, result) VALUES
  ('C[C@@]1(c2cc(NC(=O)N3CC=C(C#CC4CC4)CC3)ccc2F)C[C@@H](C(F)(F)F)OC(N)=N1 [Example 124]', 810);

[a] NC1=N[C@](CF)(c2cc(NC(=O)c3ccc(C#CC4CC4)cn3)ccc2F)C[C@@H](C(F)(F)F)O1 [Example 53]
[b] COc1cnc(C(=O)Nc2cnc(F)c([C@]3(C)C[C@@H](C(F)(F)F)OC(N)=N3)c2)cn1 [Example 70]
Prompt: Hi team, can someone confirm which has the larger IC50: a or b ? Thanks. Answer format: the label of the selected item.
Completion: a

* * *

- assay.target: Cathepsin D (Cat D) (Homo sapiens (Human), UniProt P07339)
- Sequence (P07339 65-412, species assumed): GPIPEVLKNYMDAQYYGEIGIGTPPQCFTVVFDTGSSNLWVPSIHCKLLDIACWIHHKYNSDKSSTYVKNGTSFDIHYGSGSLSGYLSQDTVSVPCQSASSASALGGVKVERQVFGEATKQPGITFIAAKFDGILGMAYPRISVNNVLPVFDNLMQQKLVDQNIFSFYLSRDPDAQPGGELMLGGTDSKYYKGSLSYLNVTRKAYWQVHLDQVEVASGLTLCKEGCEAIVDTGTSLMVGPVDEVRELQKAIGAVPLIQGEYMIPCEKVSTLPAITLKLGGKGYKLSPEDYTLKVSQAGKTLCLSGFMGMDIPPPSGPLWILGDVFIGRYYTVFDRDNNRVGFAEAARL
- experiment.summary: In vitro enzymatic Cathepsin D (Cat D) FRET assay
- Format: biochemical
- run.parameters: average; read-out: CatD IC50
pIC50: −log10 of the molar value.
measure: pIC50

INSERT INTO assay_data (entry_smiles, result) VALUES
  ('COc1cnc(C(=O)Nc2cc(F)c(Cl)c([C@]3(C)C[C@@H](C(F)(F)F)OC(N)=N3)c2)cn1', 3.71);

[A] C[C@@]1(c2cc(NC(=O)c3ccc(C(F)F)cn3)cc(F)c2F)C[C@@H](C(F)(F)F)OC(N)=N1
[B] NC1=N[C@](CF)(c2cc(C#Cc3ccc(OC(F)F)cn3)ccc2F)C[C@@H](C(F)(F)F)O1
Prompt: // compare measured pIC50 between A and B ; output the lower one Which one? Tell me its label.
Completion: A
(A: 3.00, B: 3.22)

* * *

- assay.target: Cathepsin D (Cat D) (Homo sapiens (Human), UniProt P07339)
- experiment.summary: In vitro enzymatic Cathepsin D (Cat D) FRET assay
- Format: biochemical
- run.parameters: average IC50; read-out: CatD IC50
- Experimental: In Vitro Enzymatic Cathepsin D (Cat D) FRET (Fluorescence Resonance Energy Transfer) Assay Recombinant Cat D was expressed in CHO cells. The assay buffer for CathepsinD is 0.05 M citrate pH 3.5, 10% DMSO final, 5 mM CHAPS. […] The FRET assay is terminated with by addition of Tris buffer, which raises the pH to neutrality, and the fluorescence is determined. […] Proteolytic cleavage of the FRET substrate releases quenching of fluorescence (Cat D excitation 500 nm and emission 580 nm). […]
pIC50: −log10 of the molar value.
measure: pIC50

INSERT INTO assay_data (compound, measure, result) VALUES
  ('NC1=N[C@](CF)(c2cc(Oc3cc(-c4ccccc4)ccn3)ccc2F)C[C@@H](C(F)(F)F)O1 [Example 102]', 'pIC50', 3.94),
  ('Cc1cc(C#N)cnc1C(=O)Nc1ccc(F)c([C@]2(C)C[C@@H](C(F)(F)F)OC(N)=N2)n1 [Example 84]', 'pIC50', 3.05),
  ('NC1=N[C@](CF)(c2cccc(Nc3nccc4cc(Cl)cnc34)c2)C[C@@H](C(F)(F)F)O1 [Example 146]', 'pIC50', 3.13);
